What inhibition at 0.3 µM was measured for each of the following?
target: DYRK1A (Homo sapiens, UniProt Q13627); assay: FRET-based LanthaScreen Eu Kinase Binding Assay for DYRK1A; details: compound at 300 nM, duplicates; read-out: % DYRK1A Inhibition 300 nM
Could you give me the number in %? Just the number is fine.

Task: Answer briefly: inhibition at 0.3 µM recorded on DYRK1A (Homo sapiens, UniProt Q13627) for Cc1nccc2c1[nH]c1cc(NC(=O)c3ccccc3)ccc12 [1-11, 7-Benzamide-1-methyl-9H-b-carboline]
Output: 48

Task: Answer briefly: inhibition at 0.3 µM recorded on DYRK1A (Homo sapiens, UniProt Q13627) for CC(=O)NCCCOc1ccc2c(c1)[nH]c1c(C)nccc12 [1-6b]
Output: 22

Task: Answer briefly: inhibition at 0.3 µM recorded on DYRK1A (Homo sapiens, UniProt Q13627) for Cc1nccc2c1[nH]c1cc(OCCCNC(=O)OC(C)(C)C)ccc12 [1-2l]
Output: 24

Task: Answer briefly: inhibition at 0.3 µM recorded on DYRK1A (Homo sapiens, UniProt Q13627) for Cc1nccc2c1[nH]c1cc(OCCCC(=O)O)ccc12 [1-4c]
Output: 6

Task: Answer briefly: inhibition at 0.3 µM recorded on DYRK1A (Homo sapiens, UniProt Q13627) for Cc1nccc2c1[nH]c1cc(OCCCCCC(=O)O)ccc12 [1-4e]
Output: 43

Task: Answer briefly: inhibition at 0.3 µM recorded on DYRK1A (Homo sapiens, UniProt Q13627) for Cc1nccc2c1[nH]c1cc(OCCCCC(N)=O)ccc12 [1-3d]
Output: 67

Task: Answer briefly: inhibition at 0.3 µM recorded on DYRK1A (Homo sapiens, UniProt Q13627) for COC(=O)CCCOc1ccc2c(c1)[nH]c1c(C)nccc12 [1-2c]
Output: 47

Task: Answer briefly: inhibition at 0.3 µM recorded on DYRK1A (Homo sapiens, UniProt Q13627) for Cc1nccc2c1[nH]c1cc(OCCNC(=O)OC(C)(C)C)ccc12 [1-2k]
Output: 35

Task: Answer briefly: inhibition at 0.3 µM recorded on DYRK1A (Homo sapiens, UniProt Q13627) for Cc1nccc2c1[nH]c1cc(OCCCCN)ccc12 [1-5c]
Output: 15

Task: Answer briefly: inhibition at 0.3 µM recorded on DYRK1A (Homo sapiens, UniProt Q13627) for CC(=O)NCCOc1ccc2c(c1)[nH]c1c(C)nccc12 [1-6a]
Output: 24

Task: Answer briefly: inhibition at 0.3 µM recorded on DYRK1A (Homo sapiens, UniProt Q13627) for CCOCCOc1ccc2c(c1)[nH]c1c(C)nccc12 [1-2p]
Output: 19

Task: Answer briefly: inhibition at 0.3 µM recorded on DYRK1A (Homo sapiens, UniProt Q13627) for CC(=O)NCCOCCOc1ccc2c(c1)[nH]c1c(C)nccc12 [1-6d]
Output: 17

Task: Answer briefly: inhibition at 0.3 µM recorded on DYRK1A (Homo sapiens, UniProt Q13627) for Cc1nccc2c1[nH]c1cc(OCCCCNC(=O)OC(C)(C)C)ccc12 [1-2m]
Output: 31

Task: Answer briefly: inhibition at 0.3 µM recorded on DYRK1A (Homo sapiens, UniProt Q13627) for Cc1nccc2c1[nH]c1cc(OCCCCCC(N)=O)ccc12 [1-3e]
Output: 39

Task: Answer briefly: inhibition at 0.3 µM recorded on DYRK1A (Homo sapiens, UniProt Q13627) for CC(=O)NCCCCOc1ccc2c(c1)[nH]c1c(C)nccc12 [1-6c]
Output: 45

Task: Answer briefly: inhibition at 0.3 µM recorded on DYRK1A (Homo sapiens, UniProt Q13627) for Cc1nccc2c1[nH]c1cc(OCCCC(N)=O)ccc12 [1-3c]
Output: 32

Task: Answer briefly: inhibition at 0.3 µM recorded on DYRK1A (Homo sapiens, UniProt Q13627) for COC(=O)CCCCOc1ccc2c(c1)[nH]c1c(C)nccc12 [1-2d]
Output: 35

Task: Answer briefly: inhibition at 0.3 µM recorded on DYRK1A (Homo sapiens, UniProt Q13627) for Cc1nccc2c1[nH]c1cc(OCCCCC(=O)O)ccc12 [1-4d]
Output: 20

Task: Answer briefly: inhibition at 0.3 µM recorded on DYRK1A (Homo sapiens, UniProt Q13627) for Cc1nccc2c1[nH]c1cc(OCCOCCN)ccc12 [1-5d]
Output: 15

Task: Answer briefly: inhibition at 0.3 µM recorded on DYRK1A (Homo sapiens, UniProt Q13627) for Cc1nccc2c1[nH]c1cc(OCCOCCNC(=O)OC(C)(C)C)ccc12 [1-2n]
Output: 27

Task: Answer briefly: inhibition at 0.3 µM recorded on DYRK1A (Homo sapiens, UniProt Q13627) for Cc1nccc2c1[nH]c1cc(OCC(N)=O)ccc12 [1-3a]
Output: 10

Task: Answer briefly: inhibition at 0.3 µM recorded on DYRK1A (Homo sapiens, UniProt Q13627) for Cc1nccc2c1[nH]c1cc(OCCN)ccc12 [1-5a]
Output: 12
